- target.system: IDO1 (Homo sapiens, UniProt P14902)
- Sequence (P14902 whole entry): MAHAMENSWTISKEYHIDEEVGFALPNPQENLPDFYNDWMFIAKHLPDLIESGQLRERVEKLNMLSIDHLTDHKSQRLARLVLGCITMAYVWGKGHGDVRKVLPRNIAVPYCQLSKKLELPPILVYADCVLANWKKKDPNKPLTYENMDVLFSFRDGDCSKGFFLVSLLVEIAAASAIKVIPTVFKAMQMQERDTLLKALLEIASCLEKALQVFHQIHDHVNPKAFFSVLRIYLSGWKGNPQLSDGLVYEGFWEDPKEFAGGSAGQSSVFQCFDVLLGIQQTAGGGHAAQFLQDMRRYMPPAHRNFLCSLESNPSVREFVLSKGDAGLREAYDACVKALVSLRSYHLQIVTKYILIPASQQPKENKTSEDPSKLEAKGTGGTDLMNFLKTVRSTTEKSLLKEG
- test.protocol: IDO1 Cellular Assay in HeLa Cells Stimulated with IFNγ
- Format: cell-based
- assay.context: about 48 hours, read-out: Hela IC50
pIC50: −log10 of the molar value.
Quick rule: pIC50 of at least 7 means yes, below that means no.

>  <molecule>
COC(C)C(=O)N1CCCc2cc([C@H](C)C(=O)Nc3ccc(F)cc3)ccc21 (single isomer, unassigned)

>  <target.system>
IDO1 (Homo sapiens, UniProt P14902)

>  <class.label>
yes

$$$$
>  <molecule>
CC(NC(=O)c1ccc(F)cc1)c1ccc2c(n1)C(F)(F)CCN2C(=O)C1CC1 (stereo not shown) [Example 193]

>  <target.system>
IDO1 (Homo sapiens, UniProt P14902)

>  <class.label>
no

$$$$
>  <molecule>
O=C(c1cocn1)N1CCCc2cc(C3(C(=O)Nc4ccc(F)cn4)CCC3)ccc21

>  <target.system>
IDO1 (Homo sapiens, UniProt P14902)

>  <class.label>
yes

$$$$

stdin: Say whether CC(C)C(C(=O)Nc1ccc(F)cc1)c1ccc2c(n1)CCCN2C(=O)C1CC1 (stereo not shown) [Example 263] shows pIC50 of 7 or more.
stdout: yes

stdin: Also, CC(NC(=O)c1ccc(F)cc1)c1ccc2c(n1)C(O)CCN2C(=O)C1CC1 (single isomer, unassigned) [Example 198] please.
stdout: no

====

- target.system: IDO1 (Homo sapiens, UniProt P14902)
- test.protocol: IDO1 Cellular Assay in HeLa Cells Stimulated with IFNγ
- Type: cell-based
- assay.context: about 48 hours, read-out: Hela IC50
Where a name gives a salt, the structure may show the parent alone.
Would you mind telling me the reported log10 IC50 of each entry?
Please be aware that the numbers have been log10-transformed from IC50 in nM.

>  <molecule>
O=C(NC1(c2ccc3c(n2)CCCN3c2ccnc(C3CC3)n2)CC1)c1ccc(F)cc1 [Example 307, trifluoroacetate]

>  <log10 IC50>
-0.05

$$$$

Batch request: log10 IC50 per item, same order as input.
1. CC(NC(=O)c1ccc(F)cc1)c1ccc2c(n1)C(F)CCN2C(=O)C1CC1 (single isomer, unassigned) [Example 204]
2. Cc1nccc(N2CCCc3nc(C4(C(=O)Nc5ccc(Cl)cc5)COC4)ccc32)n1
3. O=C(NC1(c2ccc3c(n2)CCCN3C(=O)c2cccc(Cl)c2)CC1)c1ccc(F)cc1
4. Cc1nc(C(=O)N2CCCc3cc(C(C)C(=O)Nc4ccc(F)cc4)ccc32)co1 (stereo not shown)
5. C[C@H](C(=O)Nc1ccc(F)cn1)c1ccc2c(c1)CCCN2C(=O)c1cccc(Cl)c1 (single isomer, unassigned)
6. CC(C)(C(=O)Nc1ccc(F)cc1)c1ccc2c(n1)CCCN2C(=O)C1CCOCC1

stdout:
1. 2.36
2. 0.29
3. 0.36
4. 0.77
5. 1.26
6. 0.77

====

- target.system: UniProtKB P14902
- test.protocol: IDO1 Cellular Assay in HeLa Cells Stimulated with IFNγ
- Format: cell-based
- assay.context: about 48 hours, read-out: Hela IC50
property.measured: pIC50
Answers are plain numbers, as −log10 of the molar value.

Known results for compounds:
>  <compound>
CC(NC(=O)c1ccc(F)cc1)c1ccc2c(n1)CCCN2C(=O)c1cc(C(F)(F)F)ccn1 (stereo not shown)

>  <test.result>
6.33

$$$$
>  <compound>
CC(NC(=O)c1ccc(F)cc1)c1ccc2c(n1)CCCN2C(=O)c1cc(Cl)cc(Cl)c1 (stereo not shown)

>  <test.result>
8.49

$$$$
>  <compound>
O=C(OC1CC1)N1CCCc2nc(C3(C(=O)Nc4ccc(F)cc4)COC3)ccc21

>  <test.result>
8.55

$$$$

Batch request: pIC50 per item, same order as input.
1. CC(C)CC(=O)N1CCCc2cc(CNC(=O)c3ccc(Cl)c(Cl)c3)ccc21
2. Cc1nccc(N2CCCc3nc(C(C)(C)C(=O)Nc4ccc(Cl)cc4)ccc32)n1
3. O=C(NC1(c2ccc3c(n2)CCCN3C(=O)[C@H]2CCCO2)CC1)c1ccc(F)cc1

stdout:
[6.56, 8.62, 8.01]

Batch request: pIC50 per item, same order as input.
1. O=C(OC1CC1)N1CCCc2nc(C3(C(=O)Nc4ccc(Cl)cc4)COC3)ccc21
2. C[C@@H](C(=O)Nc1ccc(Cl)cc1)c1ccc2c(c1)CCCN2C(=O)c1cccc(Cl)c1 (single isomer, unassigned)
3. O=C([C@H]1CCCO1)N1CCCc2nc(C3(C(=O)Nc4ccc(F)cc4)CCC3)ccc21
4. Cc1cnc(C(=O)N2CCCc3cc(C(C)C(=O)Nc4ccc(F)cc4)ccc32)s1 (stereo not shown)
5. CCc1nc(C(=O)NCc2ccc3c(c2)CCCN3C(=O)c2cccc(Cl)c2)co1

stdout:
1: 8.83; 2: 8.64; 3: 8.72; 4: 8.34; 5: 7.11

Batch request: pIC50 per item, same order as input.
1. Cc1nccc(N2CCCc3nc(C4(NC(=O)c5ccc(F)c(Br)c5)CC4)ccc32)n1
2. O=C(NC1(c2ccc3c(n2)CCCN3C(=O)C2CCCCO2)CC1)c1ccc(F)cc1 (stereo not shown) [Example 170]
3. C[C@H](NC(=O)c1ccc(Cl)cc1)c1ccc2c(n1)OCCN2C(=O)c1cccc(Cl)c1 (single isomer, unassigned)
4. CC(C(=O)Nc1ccc(F)cc1)c1ccc2c(c1)CCCN2C1CCCCC1 (stereo not shown)
5. O=C([C@@H]1CCCCO1)N1CCCc2cc(C3(C(=O)Nc4ccc(F)cc4)CCC3)ccc21 (single isomer, unassigned)

stdout:
[8.55, 8.62, 8.43, 5.38, 8.72]
